- measurementTarget: T1, cJun bZIP (human, UniProt P05412 252-308, limits assumed)
- T1 chain: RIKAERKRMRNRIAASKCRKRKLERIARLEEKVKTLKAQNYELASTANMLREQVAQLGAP
- assayInfo: cell-based or functional assay
Bridge positions count the residues as written; N and C are the ends.
endpointName: IC50 CD (µM)

binder="Ac-EAEELVVEEDVLEEEIEQLEERNYALRKEIEDLQ-NH2 (Synthetic, NΔ20 CΔ9; also called linear form of 28/29) [HingeW variant peptide 28]" endpointname="IC50 CD" valuemeasured=725
binder="Ac-EAEELVVEEDVLEEEIEQLEEKNKALKDEIEDLY-NH2 (lactam 24-28 (inferred), Synthetic, NΔ20 CΔ10; also called cyclised form of 26/27) [HingeW variant peptide 27]" endpointname="IC50 CD" valuemeasured=118
binder="HingeW (Recombinant, capped (MAS at the N-terminus, GAP at the C-terminus) and C-terminally 6xHis-tagged, 69 amino acids; also called peptide 1) peptide: MASLEQRAEELARENEELEKEAEELVVEEDVLEEEIEQLEERNYALRKEIEDLQKQLEKLGAPHHHHHH" endpointname="IC50 CD" valuemeasured=13.4

Each recorded value in this set is attributed to patent US20250188151A1.
